Biological target: human HER3 endogenously expressed on human cancer cells (SK-Br-3, BT-474, MCF7) (human, UniProt P21860 20-1342)
Test: cell-based or functional assay
READOUT_TYPE: MCF7 pHER3 IC50 (pM)
The figure you give is taken to be in pM; do not add the unit.

// known answers, use as guide
MOR13662 (antibody, human IgG1, lambda, V domains shown) VH: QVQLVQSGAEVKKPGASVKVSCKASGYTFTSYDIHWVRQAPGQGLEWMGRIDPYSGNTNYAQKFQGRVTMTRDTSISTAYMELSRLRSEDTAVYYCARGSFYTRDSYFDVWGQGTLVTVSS VL: DIALTQPASVSGSPGQSITISCTGTSSDVGTYNQVSWYQQHPGKAPKLMIYGVSKRPSGVSNRFSGSKSGNTASLTISGLQAEDEADYYCYSRAKTHWTDVFGGGTKLTVLG: 550
MOR12606 (antibody, human IgG1, kappa, V domains shown, Tested as IgG) VH: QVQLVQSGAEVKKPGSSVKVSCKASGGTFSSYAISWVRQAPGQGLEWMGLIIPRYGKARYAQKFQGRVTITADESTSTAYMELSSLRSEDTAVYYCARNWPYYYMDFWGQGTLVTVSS VL: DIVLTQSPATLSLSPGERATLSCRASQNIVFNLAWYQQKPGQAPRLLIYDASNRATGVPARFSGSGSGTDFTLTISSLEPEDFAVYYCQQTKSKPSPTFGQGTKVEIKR: 34
MOR13664 (antibody, human IgG1, lambda, V domains shown) VH: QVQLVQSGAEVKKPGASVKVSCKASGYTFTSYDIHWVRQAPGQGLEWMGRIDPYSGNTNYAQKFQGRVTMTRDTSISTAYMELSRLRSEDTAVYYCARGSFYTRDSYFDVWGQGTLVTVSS VL: DIALTQPASVSGSPGQSITISCTGTSSDVGTYNQVSWYQQHPGKAPKLMIYGVSKRPSGVSNRFSGSKSGNTASLTISGLQAEDEADYYCSAYDASTQVVFGGGTKLTVLG: 480
MOR13658 (antibody, human IgG1, lambda, V domains shown, Tested as IgG) VH: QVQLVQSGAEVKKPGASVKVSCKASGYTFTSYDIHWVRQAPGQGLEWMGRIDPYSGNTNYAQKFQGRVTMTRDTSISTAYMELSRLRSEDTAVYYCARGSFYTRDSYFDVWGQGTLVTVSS VL: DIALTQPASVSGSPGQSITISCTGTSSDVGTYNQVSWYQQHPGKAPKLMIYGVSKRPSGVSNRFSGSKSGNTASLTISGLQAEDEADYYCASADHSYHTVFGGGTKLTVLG: 459
MOR13656 (antibody, human IgG1, lambda, V domains shown) VH: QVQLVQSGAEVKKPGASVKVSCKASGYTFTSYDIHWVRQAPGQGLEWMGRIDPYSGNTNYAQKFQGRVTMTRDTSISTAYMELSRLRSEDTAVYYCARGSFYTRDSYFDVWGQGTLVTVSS VL: DIALTQPASVSGSPGQSITISCTGTSSDVGTYNQVSWYQQHPGKAPKLMIYGVSKRPSGVSNRFSGSKSGNTASLTISGLQAEDEADYYCAVRDSVWHVFGGGTKLTVLG: 504

MCF7 pHER3 IC50 measured on MOR13670 (antibody, human IgG1, lambda, V domains shown) VH: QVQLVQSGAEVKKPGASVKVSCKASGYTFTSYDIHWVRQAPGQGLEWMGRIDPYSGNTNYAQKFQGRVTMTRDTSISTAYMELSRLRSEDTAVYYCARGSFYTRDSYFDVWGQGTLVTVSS VL: DIALTQPASVSGSPGQSITISCTGTSSDVGTYNQVSWYQQHPGKAPKLMIYGVSKRPSGVSNRFSGSKSGNTASLTISGLQAEDEADYYCQVADQGWHQVFGGGTKLTVLG = 643

Memo: MOR12922 (antibody, human IgG1, lambda, V domains shown) VH: QVQLVQSGAEVKKPGASVKVSCKASGYTFTGYYMHWVRQAPGQGLEWMGVIDPYSGWTEYAQKFQGRVTMTRDTSISTAYMELSRLRSEDTAVYYCARGSFYTRDSYFDVWGQGTLVTVSS VL: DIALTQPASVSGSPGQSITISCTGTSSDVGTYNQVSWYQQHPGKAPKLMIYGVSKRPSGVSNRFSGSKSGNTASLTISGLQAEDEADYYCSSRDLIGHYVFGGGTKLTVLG , reported MCF7 pHER3 IC50: 788

So for MOR12920 (antibody, human IgG1, lambda, V domains shown) VH: QVQLVQSGAEVKKPGASVKVSCKASGYTFTGYYMHWVRQAPGQGLEWMGDIEPYHGKPLYAQKFQGRVTMTRDTSISTAYMELSRLRSEDTAVYYCARGSFYTRDSYFDVWGQGTLVTVSS VL: DIALTQPASVSGSPGQSITISCTGTSSDVGTYNQVSWYQQHPGNAPKLMIYGVSKRPSGVSNRFSGSKSGNTASLTISGLQAEDEADYYCSSRDLIGHYVFGGGTKLTVLG , the logged MCF7 pHER3 IC50 turned out to be 3070

MOR14534 (antibody, human IgG1, kappa, V domains shown, Tested as IgG) VH: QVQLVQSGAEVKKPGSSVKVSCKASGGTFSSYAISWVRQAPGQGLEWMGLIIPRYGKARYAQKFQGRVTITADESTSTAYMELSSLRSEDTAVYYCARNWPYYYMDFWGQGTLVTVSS VL: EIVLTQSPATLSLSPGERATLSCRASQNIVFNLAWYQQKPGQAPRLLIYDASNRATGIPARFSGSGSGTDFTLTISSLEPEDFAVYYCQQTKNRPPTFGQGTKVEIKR has a reported MCF7 pHER3 IC50 of 16

Short answer for MOR13660 (antibody, human IgG1, lambda, V domains shown) VH: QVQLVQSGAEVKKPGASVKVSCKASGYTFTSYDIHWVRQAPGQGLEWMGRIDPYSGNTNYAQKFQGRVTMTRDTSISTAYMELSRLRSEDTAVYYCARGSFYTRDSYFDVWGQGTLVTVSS VL: DIALTQPASVSGSPGQSITISCTGTSSDVGTYNQVSWYQQHPGKAPKLMIYGVSKRPSGVSNRFSGSKSGNTASLTISGLQAEDEADYYCAVRGSQTLVFGGGTKLTVLG : MCF7 pHER3 IC50 was 533

These data points were gathered from patent US20130251703A1.
